Measured normalised response of individual entries
Tested on: MDA-MB-453
Assay: normalised response (% of control), CellTox Green; higher = less cell death (100 = DMSO, 0 = benzethonium chloride kill control)
Details: incubation time: 72 h
Number only, in %; omit the unit.

Solved entries (count: 2):
COMPOUND | MEASURE UNIT | normalised response
COc1cc([C@@H]2c3cc4c(cc3[C@@H](O[C@@H]3O[C@@H]5CO[C@@H](C)O[C@H]5[C@H](O)[C@H]3O)[C@H]3COC(=O)[C@H]23)OCO4)cc(OC)c1O [Etoposide] (10000 nM) | % | 109
CN(N=O)C(=O)N[C@@H](C=O)[C@@H](O)[C@H](O)[C@H](O)CO [Streptozocin] (10000 nM) | % | 84.9

Q) Could you tell me which normalised response is on file for Cc1ccc(-n2nc(C(C)(C)C)cc2NC(=O)Nc2ccc(OCCN3CCOCC3)c3ccccc23)cc1 [Doramapimod] (100 nM) ?
A) 98.1

Q) // normalised response lookup, key: COc1cc2nccc(Oc3ccc(NC(=O)C4(C(=O)Nc5ccc(F)cc5)CC4)cc3)c2cc1OC [Cabozantinib] (1000 nM)
A) 101

Q) Which value of normalised response has been reported for CCC(C)(C)C(=O)O[C@H]1C[C@@H](C)C=C2C=C[C@H](C)[C@H](CC[C@@H]3C[C@@H](O)CC(=O)O3)[C@H]21 [Simvastatin] (10000 nM) in the records?
A) 104

Q) For the compound shown here, NC(=O)Nc1cc(-c2cccc(F)c2)sc1C(=O)N[C@H]1CCCNC1 [AZD7762] (10 nM) , give the reported normalised response.
A) 105
